Test: Stability of Inhibitors in Human Plasma As Measured By APTT
Format: in vitro ADME
Conditions: incubation in human plasma 0 h; 250 nM in APTT assay
Measured Clotting Time of individual entries
Number first, unit second.

Example cases with answers are listed next.
CC(C)(C)OC(=O)NC(Cc1ccccc1)C(=O)N1CCCC1C(=O)NC(CCCN=C(N)N)B1OC2CC3CC(C3(C)C)C2(C)O1.O=S(=O)(O)c1ccccc1 (centres unmarked): 81.2 s
Br.CC(C)(C)OC(=O)NC(Cc1ccccc1)C(=O)N1CCCC1C(=O)NC(CCCSC(=N)N)B1OC2CC3CC(C3(C)C)C2(C)O1 (centres unmarked): 203.2 s
CC1(C)C2CC3OB(C(CCCN=C(N)N)NC(=O)C4CCCN4C(=O)C(N)Cc4ccccc4)OC3(C)C1C2.Cl.Cl (stereo not drawn) [B, H-(D)Phe-Pro-boroArg-C10 H16.2HCl]: 152.2 s

Short answer for CC(=O)NC(Cc1ccccc1)C(=O)NC(CCCNC(=N)N)B1OC2CC3CC(C3(C)C)C2(C)O1.Cl (centres unmarked) [Compound F, Ac-Phe-boroArg-C10 H16.HCl] : Clotting Time was 76.3 s

Short answer for CC(C)(C)OC(=O)N[C@H](Cc1ccccc1)C(=O)N[C@@H](Cc1ccccc1)C(=O)N[C@@H](CCCNC(=N)N)B1OC2CC3CC(C3(C)C)C2(C)O1.O=S(=O)(O)c1ccccc1 (some centres unmarked) : Clotting Time was 63.2 s

###

Target: Human plasma kallikrein (Homo sapiens, UniProt P03952)
Construct: purchased Protogen AG (Switzerland)
Sequence (P03952 391-638 limits assumed): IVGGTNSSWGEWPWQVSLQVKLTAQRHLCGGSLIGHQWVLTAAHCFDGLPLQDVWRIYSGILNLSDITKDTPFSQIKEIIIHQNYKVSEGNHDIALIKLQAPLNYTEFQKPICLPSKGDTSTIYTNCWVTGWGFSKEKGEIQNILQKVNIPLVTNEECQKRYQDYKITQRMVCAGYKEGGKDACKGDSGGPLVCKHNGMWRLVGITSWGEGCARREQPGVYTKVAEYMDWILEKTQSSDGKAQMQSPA
Sequence (P03952 20-390 partner limits assumed): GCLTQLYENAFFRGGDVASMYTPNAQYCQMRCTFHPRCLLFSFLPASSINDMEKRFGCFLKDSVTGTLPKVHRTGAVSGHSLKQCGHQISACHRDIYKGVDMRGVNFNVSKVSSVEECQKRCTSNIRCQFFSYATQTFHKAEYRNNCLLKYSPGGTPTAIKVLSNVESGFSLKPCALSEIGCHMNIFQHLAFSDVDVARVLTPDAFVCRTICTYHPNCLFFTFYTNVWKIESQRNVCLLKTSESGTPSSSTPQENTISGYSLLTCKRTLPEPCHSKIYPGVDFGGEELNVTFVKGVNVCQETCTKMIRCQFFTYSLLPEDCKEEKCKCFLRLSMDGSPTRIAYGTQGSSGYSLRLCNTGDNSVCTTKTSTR
Test: Inhibition of Human Plasma Kallikrein
Format: biochemical
Conditions: inhibitor 50 nM; activity remaining 10 to 20 min after initiation
experimental.readout: Percent Activity (%)
Give just the numeric value; % need not be written.

Example cases with answers are listed next.
CCCCOC(=O)CC[C@H](NC(=O)c1ccccc1)C(=O)NCC(=O)NC(CCCNC(=N)N)B1OC2CC3CC(C3(C)C)C2(C)O1.O=S(=O)(O)c1ccccc1 (some centres unmarked): 11
CC1(C)C2CC3OB(C(CCCNC(=N)N)NC(=O)CNC(=O)C(CCC(=O)O)NC(=O)c4ccccc4)OC3(C)C1C2.O=S(=O)(O)c1ccccc1 (centres unmarked): 39
Br.CC(=O)NC(Cc1ccccc1)C(=O)NC(CCCSC(=N)N)B1OC2CC3CC(C3(C)C)C2(C)O1 (centres unmarked): 17
Br.CC(=O)NC(C)C(=O)NC(CCCCNC(=O)OC(C)(C)C)C(=O)NC(CCCSC(=N)N)B1OC2CC3CC(C3(C)C)C2(C)O1 (centres unmarked): 1.4

Turning now to a further record.
Short answer for CC(=O)NC(C)C(=O)NC(CCCCN)C(=O)NC(CCCNC(=N)N)B1OC2CC3CC(C3(C)C)C2(C)O1.Cl.Cl (stereo not drawn) [Ac--Ala--Lys--boroArg--C10 H16.2HCl, Ac-Ala-Lys-boroArg-C10 H16.2HCl] : Percent Activity was 39

###

Target: Human thrombin (Homo sapiens)
Construct: purchased R.Q.P. Laboratories, South Bend, IN Lot HT102
Experiment: Inhibition of Thrombin (Esterase Activity)
Format: biochemical
Conditions: inhibitor 5 nM; activity remaining 10 to 20 min after initiation
Measured Percent Activity of individual entries

Example cases with answers are listed next.
Br.CC(C)(C)OC(=O)NC(Cc1ccccc1)C(=O)N1CCCC1C(=O)NC(CCCSC(=N)N)B1OC2CC3CC(C3(C)C)C2(C)O1 (stereo not drawn): 3%
CC(=O)NC(Cc1ccccc1)C(=O)N1CCCC1C(=O)NC(CCCNC(=N)N)B1OC2CC3CC(C3(C)C)C2(C)O1.Cl (stereo not drawn) [Ac--(D)Phe--Pro--boroArg--C10 H16.HCl, Ac-(D)Phe-Pro-boroArg-C10 H16.HCl]: 1%
CC(C)(C)OC(=O)NC(Cc1ccccc1)C(=O)N1CCCC1C(=O)NC(CCCN=C(N)N)B1OC2CC3CC(C3(C)C)C2(C)O1.O=S(=O)(O)c1ccccc1 (stereo not drawn): 3%

Short answer for Br.CC1(C)C2CC3OB(C(CCCSC(=N)N)NC(=O)C4CCCN4C(=O)C(N)Cc4ccccc4)OC3(C)C1C2.Cl (stereo not drawn) [H--(D)Phe--Pro--boroIrg--C10 H16.HBr.HCl, H-(D)Phe-Pro-boroIrg-C10 H16.HBr,HCl] : Percent Activity was 4%

Short answer for CC1(C)C2CC3OB(C(CCCN=C(N)N)NC(=O)C4CCCN4C(=O)C(N)Cc4ccccc4)OC3(C)C1C2.Cl.Cl (stereo not drawn) [B, H-(D)Phe-Pro-boroArg-C10 H16.2HCl] : Percent Activity was 7%

Short answer for Br.CC(C)(C)OC(=O)NC(Cc1ccccc1)C(=O)NC(Cc1ccccc1)C(=O)NC(CCCSC(=N)N)B1OC2CC3CC(C3(C)C)C2(C)O1 (stereo not drawn) : Percent Activity was 48%
